- System: Bacillus subtilis 168 HT

Molecule	MIC
CC[C@H](C)[C@H](NC(=O)[C@@H](NC(=O)[C@H](CCCCN)NC(=O)[C@H](CCCCN)NC(=O)[C@H](Cc1ccccc1)NC(=O)[C@@H](N)CCCCN)C(C)C)C(=O)N[C@@H](Cc1c[nH]c2ccccc12)C(=O)N[C@@H](CCCCN)C(=O)N[C@@H](CO)C(=O)N[C@@H](Cc1ccccc1)C(=O)N[C@@H](CC(C)C)C(=O)O [KFKKVIWKSFL]	≥ 45 µM

* * *

- Test system: Salmonella typhimurium KCTC 1926
- Experiment: ≥ marks a high value that may be exact or a test limit, other limits are often not marked, values filed in µg/mL are converted to µM
Measured MIC of individual entries

Molecule	MIC, µM
CC[C@H](C)[C@H](NC(=O)[C@H](CCCN=C(N)N)NC(=O)[C@@H]1CCCN1C(=O)[C@H](CC(C)C)NC(=O)[C@@H](N)CCCN=C(N)N)C(=O)N[C@@H](Cc1c[nH]c2ccccc12)C(=O)N[C@@H](Cc1c[nH]c2ccccc12)C(=O)N[C@H](C(=O)N[C@@H](CCCN=C(N)N)C(=O)N[C@H](C(=O)N1CCC[C@H]1C(=O)N[C@@H](CCCN=C(N)N)C(N)=O)C(C)C)[C@@H](C)CC	1.9
CC(C)C[C@H](NC(=O)[C@H](Cc1ccccc1)NC(=O)[C@H](CC(C)C)NC(=O)[C@H](CS)NC(=O)[C@H](Cc1cnc[nH]1)NC(=O)[C@@H](NC(=O)[C@H](C)N)[C@@H](C)O)C(=O)N[C@@H](CCCCN)C(=O)N[C@@H](CCCCN)C(=O)N[C@@H](CCCN=C(N)N)C(N)=O [ATHCLFLKKR]	15
CC[C@H](C)[C@H](NC(=O)[C@H](CCCN=C(N)N)NC(=O)[C@H](CCC(N)=O)NC(=O)[C@@H](NC(=O)[C@@H](NC(=O)[C@H](CCCN=C(N)N)NC(=O)[C@H](CCCCN)NC(=O)[C@@H](N)Cc1ccccc1)[C@@H](C)CC)C(C)C)C(=O)N[C@@H](CCCCN)C(=O)N[C@@H](CC(=O)O)C(=O)N[C@@H](Cc1ccccc1)C(=O)N[C@@H](CC(C)C)C(=O)N[C@@H](CCCN=C(N)N)C(N)=O	16
CC[C@H](C)[C@H](N)C(=O)N[C@@H](CC(C)C)C(=O)N1CCC[C@H]1C(=O)N[C@@H](Cc1c[nH]c2ccccc12)C(=O)N[C@@H](CCCCN)C(=O)N[C@@H](Cc1c[nH]c2ccccc12)C(=O)N1CCC[C@H]1C(=O)N[C@@H](CCCCN)C(=O)N[C@@H](CCCCN)C(=O)N1CCC[C@H]1C(=O)N[C@@H](Cc1c[nH]c2ccccc12)C(=O)N[C@@H](CCCN=C(N)N)C(=O)N[C@@H](CCCN=C(N)N)C(N)=O	2.79
CC[C@H](C)[C@H](NC(=O)[C@H](CCCCN)NC(=O)[C@H](CCCCN)NC(=O)[C@H](Cc1ccccc1)NC(=O)[C@H](CC(C)C)NC(=O)[C@H](CCCCN)NC(=O)[C@H](Cc1c[nH]c2ccccc12)NC(=O)[C@H](CCCCN)NC(=O)[C@@H]1CCCN1C(=O)[C@H](Cc1ccccc1)NC(=O)[C@H](CCCCN)NC(=O)[C@H](CCCCN)NC(=O)[C@H](C)NC(=O)[C@H](CC(C)C)NC(=O)[C@H](Cc1cnc[nH]1)NC(=O)[C@H](CC(C)C)NC(=O)[C@H](Cc1ccccc1)NC(=O)[C@@H](N)CCCCN)C(N)=O	1.56
